tested on: human osteosarcoma cells (MG-63); assay: Assessment of cytotoxicity by SRB assay, osteosarcoma cells; assay type: cell-based; settings: Homo sapiens; MG-63 cells, 72 h, mean±SD
VALUE TYPE: IC50 (µM)
Give bare numbers, in µM.

INSERT INTO assay_data (compound, value_type, measure_unit, data_value) VALUES
  ('COc1cccc2c1C(=O)c1c(O)c3c(c(O)c1C2=O)C[C@@](O)(C(=O)CO)C[C@@H]3O[C@H]1C[C@H](N)[C@H](O)[C@H](C)O1 [DOX, Doxorubicin, reference compound]', 'IC50', 'µM', 9.3);

# evaluate next
Which IC50 value belongs to O=C(O)c1ccccc1C(=O)n1ccnc1 ? 3.55

These entries and their values trace back to patent US12172966B1.
